Tested on: KB
test: Cytotoxicity against human KB cells assessed as growth inhibition after 72 hrs by neutral red assay
Format: functional, cell-based
Exam item: assign yes to entries whose IC50 is below 60 µM and no to entries at or above 60 µM. Note that a value of exactly 60 µM receives no.

IN: Does the reported IC50 of COc1c(-c2ccc(O)cc2)oc2cc(O)cc(O)c2c1=O [ISOKAEMPFERIDE] stay below 60 µM?
OUT: no

IN: Determine whether this molecule shows IC50 lower than 60 µM (ties excluded): C/C(=C\CO)CCCC(C)CCCC(C)CCCC(C)C (centres undefined)
OUT: no

IN: Is the reported IC50 for `C[C@H]1[C@H](C)CC[C@]2(CO)CC[C@]3(C)C(=CC[C@@H]4[C@@]5(C)CC[C@H](O)C(C)(C)[C@@H]5CC[C@]43C)[C@H]12` strictly below 60 µM?
OUT: yes

IN: hey, is IC50 for `CO[C@@H]1CC(=O)[C@]2(C)[C@@H]1[C@H](O)C[C@@H]1[C@@]3(C)CC[C@H](O)C(C)(C)[C@@H]3CC[C@]12C` lower than 60 µM or not?
OUT: no

IN: Would you kindly verify if IC50 of `C/C(=C\CC[C@](C)(O)[C@H]1CC[C@]2(C)[C@@H]1CC[C@@H]1[C@@]3(C)CCC(=O)C(C)(C)[C@@H]3CC[C@]12C)C(=O)O` is strictly less than 60 µM?
OUT: no

IN: Consider the molecule `CC1(C)C(=O)CC[C@]2(C)[C@H]3C[C@@H](O)[C@@H]4C=CC(=O)[C@@]4(C)[C@]3(C)CC[C@@H]12` . Is its IC50 strictly less than 60 µM?
OUT: yes

IN: Here's an entry: `C/C(=C\CC[C@](C)(O)[C@@H]1[C@H]2CC[C@@H]3[C@@]4(C)CCC(=O)C(C)(C)[C@@H]4CC[C@@]3(C)[C@]2(C)C[C@@H]1O)C(=O)O` . Is its IC50 below 60 µM?
OUT: no

IN: Strictly below 60 µM: is that where IC50 of `O=c1cc(-c2ccc(O)c(O)c2)oc2cc(O)cc(O)c12` sits?
OUT: yes

IN: Consider `CC1(C)CC[C@]2(C(=O)O)CC[C@]3(C)C(=CC[C@@H]4[C@@]5(C)C[C@@H](O)[C@H](O)C(C)(C)[C@@H]5CC[C@]43C)[C@@H]2C1` . Does its IC50 lie strictly below 60 µM?
OUT: no

====

Tested on: KB
test: Cytotoxicity against human KB cells assessed as growth inhibition after 72 hrs by neutral red assay
Type: functional, cell-based
Assign IC50 to each entry below.

// sample `C[C@H]1[C@H](C)CC[C@]2(C)CC[C@]3(C)C(=CC[C@@H]4[C@@]5(C)CC[C@H](O)C(C)(C)[C@@H]5CC[C@]43C)[C@H]12` , its IC50 was > 100 µM

Lab note: `CC1(C)[C@@H](O)CC[C@]2(C)[C@H]3C[C@@H](O)[C@@H]4C=CC(=O)[C@@]4(C)[C@]3(C)CC[C@@H]12` gave IC50 of 5.2 µM

# IC50 (compound: CC1(C)CC[C@]2(C(=O)O)CC[C@]3(C)C(=CC[C@@H]4[C@@]5(C)CC[C@H](O)C(C)(C)[C@@H]5CC[C@]43C)[C@@H]2C1 [OLEANOLIC_ACID] ) is > 100 µM

IC50 reported for this compound `CC1(C)[C@@H](O)CC[C@]2(C)[C@H]3C[C@@H](O)[C@@H]4[C@H](O)CC(=O)[C@@]4(C)[C@]3(C)CC[C@@H]12` : > 100 µM

Data point: `CC1(C)C(=O)CC[C@]2(C)[C@H]3C[C@@H](O)[C@@H]4[C@H](O)CC(=O)[C@@]4(C)[C@]3(C)CC[C@@H]12` ; IC50 = > 100 µM

Looking up `C=C(C)[C@@H]1CC[C@@]2(C)[C@H]1[C@H]1CC[C@@H]3[C@@]4(C)CCC(=O)C(C)(C)[C@@H]4CC[C@@]3(C)[C@]1(C)C[C@@H]2O` , I found its IC50 recorded as 30.5 µM
